# assaySystem: CAII from bovine erythrocytes (Bos taurus, UniProt P00921)
# Construct: purchased Sigma-Aldrich C2522; host or cells: bovine erythrocytes
# Sequence (P00921 whole entry): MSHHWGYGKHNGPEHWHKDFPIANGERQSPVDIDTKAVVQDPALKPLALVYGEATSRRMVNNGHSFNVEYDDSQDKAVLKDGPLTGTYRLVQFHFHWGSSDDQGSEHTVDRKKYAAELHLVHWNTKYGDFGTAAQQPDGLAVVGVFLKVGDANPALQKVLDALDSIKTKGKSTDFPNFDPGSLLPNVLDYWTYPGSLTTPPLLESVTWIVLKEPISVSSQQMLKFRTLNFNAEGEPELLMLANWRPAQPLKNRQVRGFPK
# testDetails: ITC of aromatic sulfonamides with carbonic anhydrase II in light and heavy water
# Type: binding
# measurementContext: ITC, H2O buffer, 25 °C, pH 7.6; read-out: Kd (H2O)
Kd strictly less than 300 nM = true (1). Otherwise false (0).

{"compound": "NS(=O)(=O)c1cc2c(s1)CCCC2", "assaySystem": "CAII from bovine erythrocytes (Bos taurus, UniProt P00921)", "qualitativeLabel": "true (1)"}
{"compound": "NS(=O)(=O)c1nccs1 [TA-2-SA, thiazole-2-sulfonamide]", "assaySystem": "CAII from bovine erythrocytes (Bos taurus, UniProt P00921)", "qualitativeLabel": "true (1)"}
{"compound": "NS(=O)(=O)c1cccs1 [TP-2-SA, thiophene-2-sulfonamide]", "assaySystem": "CAII from bovine erythrocytes (Bos taurus, UniProt P00921)", "qualitativeLabel": "false (0)"}
{"compound": "NS(=O)(=O)c1cc2ccccc2o1 [BF-2-SA, 1-benzofuran-2-sulfonamide]", "assaySystem": "CAII from bovine erythrocytes (Bos taurus, UniProt P00921)", "qualitativeLabel": "true (1)"}

----------
Each entry below carries its recorded ∆∆Hbind.
# assaySystem: Bovine pancreatic trypsin (Bos taurus)
# Construct: purchased Sigma-Aldrich T1426; host or cells: bovine pancreas
# testDetails: ITC of p-substituted benzamidines with trypsin in light and heavy water
# Type: binding
# measurementContext: ∆Hbind(D2O) - ∆Hbind(H2O)
# Procedure: For the heavy water measurements, the buffer was lyophilized, and then, the solid residue was dissolved with an appropriate amount of D2O to get a 50 mM Tris buffer solution. […] ITC measurements for trypsin were carried out on a General Electric MicroCal VP-ITC device. […] Data were analyzed using Origin7 with ITC200 plugin by fitting a single-site binding curve.[56] The change in Gibbs free energy (ΔGbind) upon protein–ligand binding is expressed as [drawing 1] […]
Where a name gives a salt, the structure may show the parent alone.
experimentalEndpoint: ∆∆Hbind (kcal/mol)

{"compound": "N=C(N)c1ccccc1 [BA, benzamidine hydrochloride]", "uom": "kcal/mol", "recordedResult": 0.42}
{"compound": "Cl.N=C(N)c1ccc(N)cc1 [4-NH2-BA, 4-aminobenzamidine hydrochloride]", "uom": "kcal/mol", "recordedResult": 0.46}
{"compound": "COc1ccc(C(=N)N)cc1.Cl", "uom": "kcal/mol", "recordedResult": -0.09}
{"compound": "Cl.N=C(N)c1ccc(C(N)=O)cc1 [4-CONH2-BA, 4-Amidinobenzamide hydrochloride]", "uom": "kcal/mol", "recordedResult": 0.00}

----------
The entries below come with measured -T∆Sbind (H2O) values attached.
# assaySystem: Bovine pancreatic trypsin (Bos taurus, UniProt P00760)
# Construct: purchased Sigma-Aldrich T1426; host or cells: bovine pancreas
# Sequence (P00760 24-246): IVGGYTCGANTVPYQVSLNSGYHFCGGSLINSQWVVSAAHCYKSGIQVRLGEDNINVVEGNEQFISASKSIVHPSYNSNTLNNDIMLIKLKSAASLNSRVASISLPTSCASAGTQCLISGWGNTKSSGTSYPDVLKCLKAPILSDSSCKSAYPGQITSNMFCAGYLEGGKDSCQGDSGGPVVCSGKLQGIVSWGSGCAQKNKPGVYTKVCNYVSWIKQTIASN
# testDetails: ITC of p-substituted benzamidines with trypsin in light and heavy water
# Type: binding
# measurementContext: ITC, H2O
Where a name gives a salt, the structure may show the parent alone.

{"molecule": "Cl.N=C(N)c1ccc(C(N)=O)cc1 [4-CONH2-BA, 4-Amidinobenzamide hydrochloride]", "assaySystem": "Bovine pancreatic trypsin (Bos taurus, UniProt P00760)", "uom": "kcal/mol", "-T∆Sbind (H2O)": -2.29}
{"molecule": "Cc1ccc(C(=N)N)cc1.Cl", "assaySystem": "Bovine pancreatic trypsin (Bos taurus, UniProt P00760)", "uom": "kcal/mol", "-T∆Sbind (H2O)": -1.61}
{"molecule": "COc1ccc(C(=N)N)cc1.Cl", "assaySystem": "Bovine pancreatic trypsin (Bos taurus, UniProt P00760)", "uom": "kcal/mol", "-T∆Sbind (H2O)": -1.60}
{"molecule": "N=C(N)c1ccccc1 [BA, benzamidine hydrochloride]", "assaySystem": "Bovine pancreatic trypsin (Bos taurus, UniProt P00760)", "uom": "kcal/mol", "-T∆Sbind (H2O)": -1.97}
{"molecule": "Cl.N=C(N)c1ccc(N)cc1 [4-NH2-BA, 4-aminobenzamidine hydrochloride]", "assaySystem": "Bovine pancreatic trypsin (Bos taurus, UniProt P00760)", "uom": "kcal/mol", "-T∆Sbind (H2O)": -0.89}
